Hello, the source for this data is paper PMC12559995, in case you need it.

# System: Plasmodium falciparum 3D7
# assay method text: Antimalarial assay
# Type: cell-based
# run parameters: Plasmodium falciparum, 3D7, 72 h, read-out: Antimalarial IC50
measured attribute: pIC50
Quick note: pIC50 values are minus log10 of concentrations in mol/L.

Item: CC(=NNC(=S)NN=C(C(=NO)c1ccccc1)c1ccccc1)c1ccccc1C [HBMT-MA7] | pIC50: 5.54

----------
# assay method text: DPPH free radical scavenging assay
# run parameters: read-out: DPPH IC50; 0.1 mM DPPH, 30 min, 517 nm; mean ± SD
measured attribute: IC50

# compound, IC50
measured = [
    ("CC(=NNC(=S)NN=C(C(=NO)c1ccccc1)c1ccccc1)c1ccccc1C [HBMT-MA7]", "10.5 µM"),
]

Turning to the following compound.
Consider O=C1O[C@H]([C@@H](O)CO)C(O)=C1O [Ascorbic acid, reference compound] . Its measured IC50 is 5.21 µM
